System: Fusarium moniliforme
Assay: In vitro mycelial/spore growth on potato-sucrose-agar, percent disease control (FM)
Assay type: cell-based
Conditions: Fusarium verticillioides; 50 ppm; Fusarium moniliforme; read-out: % controlled, FM
Description: The compounds of this invention were dissolved respectively in acetone in an amount equal to 10% of the final volume and then in purified water at the concentration of 100 ppm and 50 ppm. Each of the solution was mixed with potato-sucrose-agar medium in 6" petri dish and one of the fungi was spotted at the center of the dish. The dish was incubated in growth room for several days. The percent disease control was derived from the radii of spore growth. […]
# inhibition of growth at 50 ppm values compiled below
Express the result in % but write the number alone.

CC(n1cncn1)[Si]1(c2ccc(-c3ccccc3)cc2)CCCC1 (stereo not shown); 97
Fc1ccc([Si]2(Cn3cncn3)CCCC2)c(F)c1; 100
Clc1ccc([Si]2(Cn3cncn3)CCCCC2)c(Cl)c1; 100

Known value: Fusarium moniliforme inhibition of growth at 50 ppm of the compound Clc1ccc([Si]2(Cn3cncn3)CCCCC2)cc1 equals 100

Lab entry: Fusarium moniliforme assay, compound COc1ccc([Si]2(C(C)n3cncn3)CCCC2)cc1 (stereo not shown) , inhibition of growth at 50 ppm = 94

Form field, inhibition of growth at 50 ppm with Fusarium moniliforme, item CCOc1ccc([Si]2(C(C)n3cncn3)CCCCC2)cc1 (stereo not shown) : 65

I looked up c1ccc(-c2ccc([Si]3(Cn4cncn4)CCCCC3)cc2)cc1 and its inhibition of growth at 50 ppm for Fusarium moniliforme was 100

Field inhibition of growth at 50 ppm (system: Fusarium moniliforme) for entry FC(F)(F)c1ccc([Si]2(Cn3cncn3)CCCC2)cc1 = 79

Note to self: inhibition of growth at 50 ppm of FC(F)(F)c1ccc([Si]2(Cn3cncn3)CCCCC2)cc1 with Fusarium moniliforme was 82

Entry CC(n1cncn1)[Si]1(c2ccc(C(F)(F)F)cc2)CCCC1 (stereo not shown) ; assay system Fusarium moniliforme; inhibition of growth at 50 ppm recorded at 73

// inhibition of growth at 50 ppm (Fusarium moniliforme) for CC(n1cncn1)[Si]1(c2ccc(Cl)cc2)CCCCC1 (stereo not shown) = 100

Entry CCOc1ccc([Si]2(Cn3cncn3)CCCCC2)cc1 ; assay system Fusarium moniliforme; inhibition of growth at 50 ppm recorded at 73

Hey, Fusarium moniliforme data for CCOc1ccc([Si]2(Cn3cncn3)CCCC2)cc1 : inhibition of growth at 50 ppm came out at 68

Measured inhibition of growth at 50 ppm (Fusarium moniliforme), entry CC(n1cncn1)[Si]1(c2ccc(F)cc2F)CCCCC1 (stereo not shown) : 100

// assay Fusarium moniliforme, entry Fc1ccc([Si]2(Cn3cncn3)CCCCC2)c(F)c1 , inhibition of growth at 50 ppm value = 100

The reported Fusarium moniliforme inhibition of growth at 50 ppm of CCOc1ccc([Si]2(C(C)n3cncn3)CCCC2)cc1 (stereo not shown) is 93

Form field, inhibition of growth at 50 ppm with Fusarium moniliforme, item CC(n1cncn1)[Si]1(c2ccc(Cl)cc2Cl)CCCCC1 (stereo not shown) : 100

The value of inhibition of growth at 50 ppm recorded for CC(n1cncn1)[Si]1(c2ccc(Cl)cc2)CCCC1 (stereo not shown) when tested on Fusarium moniliforme reads 100

Item COc1ccc([Si]2(Cn3cncn3)CCCCC2)cc1 was tested on Fusarium moniliforme; the reported inhibition of growth at 50 ppm is 81

---

system: Botryosphaeri; experiment: In vitro mycelial/spore growth on potato-sucrose-agar, percent disease control (BD); type: cell-based; conditions: 200 ppm, read-out: % controlled, BD
measured quantity: inhibition of growth at 200 ppm (%)
Field format: number, assumed %, no unit text.

Below are worked cases with known answers.
Clc1ccc([Si]2(Cn3cncn3)CCCCC2)cc1; 100
c1ccc(-c2ccc([Si]3(Cn4cncn4)CCCCC3)cc2)cc1; 100
Fc1ccc([Si]2(Cn3cncn3)CCCCC2)cc1; 100
CC(n1cncn1)[Si]1(c2ccc(C(F)(F)F)cc2)CCCCC1 (centres unmarked); 100
COc1ccc([Si]2(C(C)n3cncn3)CCCCC2)cc1 (centres unmarked); 100
CCOc1ccc([Si]2(C(C)n3cncn3)CCCC2)cc1 (centres unmarked); 95
CC(n1cncn1)[Si]1(c2ccc(Cl)cc2)CCCC1 (centres unmarked); 100
c1ccc(-c2ccc([Si]3(Cn4cncn4)CCCC3)cc2)cc1; 72
FC(F)(F)c1ccc([Si]2(Cn3cncn3)CCCC2)cc1; 100
Fc1ccc([Si]2(Cn3cncn3)CCCC2)c(F)c1; 100

inhibition of growth at 200 ppm reading for CC(n1cncn1)[Si]1(c2ccc(F)cc2)CCCC1 (centres unmarked) : 100

Per the records, this compound ( CC(n1cncn1)[Si]1(c2ccc(-c3ccccc3)cc2)CCCCC1 (centres unmarked) ) has inhibition of growth at 200 ppm equal to 100

The compound listed as Clc1ccc([Si]2(Cn3cncn3)CCCC2)c(Cl)c1 shows inhibition of growth at 200 ppm equal to 100

The recorded inhibition of growth at 200 ppm for Fc1ccc([Si]2(Cn3cncn3)CCCC2)cc1 is 100

---

Tested on: Rhizoctonia solani
Test: In vitro mycelial/spore growth on potato-sucrose-agar, percent disease control (RS, first column)
Type: cell-based
Conditions: 50 ppm, read-out: % controlled, RS
Experimental: The compounds of this invention were dissolved respectively in acetone in an amount equal to 10% of the final volume and then in purified water at the concentration of 100 ppm and 50 ppm. Each of the solution was mixed with potato-sucrose-agar medium in 6" petri dish and one of the fungi was spotted at the center of the dish. The dish was incubated in growth room for several days. The percent disease control was derived from the radii of spore growth. […]
measured quantity: inhibition of growth at 50 ppm

Before answering, review these 4 worked examples.
COc1ccc([Si]2(C(C)n3cncn3)CCCC2)cc1 (centres unmarked); 100%
Clc1ccc([Si]2(Cn3cncn3)CCCCC2)c(Cl)c1; 20%
CCOc1ccc([Si]2(C(C)n3cncn3)CCCCC2)cc1 (centres unmarked); 97%
CC(n1cncn1)[Si]1(c2ccc(C(F)(F)F)cc2)CCCCC1 (centres unmarked); 99%

Now look at this entry.
# molecule CC(n1cncn1)[Si]1(c2ccc(Cl)cc2Cl)CCCCC1 (centres unmarked) ; its inhibition of growth at 50 ppm = 100%

Entry source: patent US5455356A
